- targetEntity: TRβ (Homo sapiens)
- Construct: expressed in transfected cells; host or cells: HEK293
- Sequence (P10828 217-461 limits assumed): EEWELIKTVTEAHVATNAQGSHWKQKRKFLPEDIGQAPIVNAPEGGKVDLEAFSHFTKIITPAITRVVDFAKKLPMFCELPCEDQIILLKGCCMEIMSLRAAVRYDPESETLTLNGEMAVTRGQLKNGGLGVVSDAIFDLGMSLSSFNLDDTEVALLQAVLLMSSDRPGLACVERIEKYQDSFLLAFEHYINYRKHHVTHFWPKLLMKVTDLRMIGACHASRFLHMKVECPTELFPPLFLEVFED
- assayExplanation: Thyroid-hormone reporter-gene assay, TRβ (Gal4 DBD hybrid, luciferase, HEK293)
- Assay type: cell-based
- runConditions: TRβ over TRα selectivity from reporter-gene EC50 values
readoutType: T3-SI, selectivity index (SI) calculated as EC50 (TRα)/EC50 (TRβ)

compound | dataValue
Cc1cc(OCC(=O)O)cc(Br)c1Cc1ccc(O)c(-c2cccc(OC(F)F)c2)c1 | ++ (3X < T3-SI ≤ 30X)
COc1cccc(-c2cc(Cc3c(Cl)cc(OCC(=O)O)cc3Cl)ccc2O)c1 | ++ (3X < T3-SI ≤ 30X)
O=C(O)COc1cc(Cl)c(Cc2ccc(O)c(-c3cccs3)c2)c(Cl)c1 | ++ (3X < T3-SI ≤ 30X)
N#Cc1cccc(-c2cc(Cc3c(Cl)cc(OCC(=O)O)cc3Cl)ccc2O)c1 | ++ (3X < T3-SI ≤ 30X)
O=C(O)COc1cc(Cl)c(Cc2ccc(O)c(C(c3ccc(F)cc3)C3CC3)c2)c(Cl)c1 (centres unmarked) | ++ (3X < T3-SI ≤ 30X)
O=C(O)COc1cc(Cl)c(Cc2ccc(O)c(-c3ccoc3)c2)c(Cl)c1 | ++ (3X < T3-SI ≤ 30X)
C[C@@H](c1ccc(F)cc1)c1cc(Cc2c(Cl)cc(OCC(=O)O)cc2Cl)ccc1O (single isomer, unassigned) | ++ (3X < T3-SI ≤ 30X)
O=C(COc1cc(Cl)c(Cc2ccc(O)c(-c3cccc(OC(F)F)c3)c2)c(Cl)c1)N1CC1 | ++ (3X < T3-SI ≤ 30X)
O=C(O)COc1cc(Cl)c(Cc2ccc(O)c(-c3csc(Cl)c3)c2)c(Cl)c1 | ++ (3X < T3-SI ≤ 30X)
C[C@H](c1ccc(F)cc1)c1cc(Cc2c(Cl)cc(OCC(=O)O)cc2Cl)ccc1O (single isomer, unassigned) | ++ (3X < T3-SI ≤ 30X)
CC(C)c1cccc(-c2cc(Cc3c(Cl)cc(OCC(=O)O)cc3Cl)ccc2O)c1 | +++ (T3-SI > 30X)
O=C(O)COc1cc(Cl)c(Cc2ccc(O)c(Cc3cccs3)c2)c(Cl)c1 | ++ (3X < T3-SI ≤ 30X)
O=C(O)COc1cc(Cl)c(Cc2ccc(O)c(Cc3ccc(F)cc3F)c2)c(Cl)c1 | ++ (3X < T3-SI ≤ 30X)
CCc1ccc(F)c(-c2cc(Cc3c(Cl)cc(OCC(=O)O)cc3Cl)ccc2O)c1 | ++ (3X < T3-SI ≤ 30X)
O=C(O)COc1cc(Cl)c(Cc2ccc(O)c(-c3cccc(Cl)c3)c2)c(Cl)c1 | ++ (3X < T3-SI ≤ 30X)
CCCC(c1ccc(F)cc1)c1cc(Cc2c(Cl)cc(OCC(=O)O)cc2Cl)ccc1O (centres unmarked) | +++ (T3-SI > 30X)
O=C(O)COc1cc(Cl)c(Cc2ccc(O)c(-c3cc(C(F)(F)F)ccc3F)c2)c(Cl)c1 | ++ (3X < T3-SI ≤ 30X)
O=C(O)COc1cc(Cl)c(Cc2ccc(O)c(Cc3ccncc3)c2)c(Cl)c1 | ++ (3X < T3-SI ≤ 30X)
O=C(O)COc1cc(Cl)c(Cc2ccc(O)c(Cc3ccsc3)c2)c(Cl)c1 | ++ (3X < T3-SI ≤ 30X)
C=Cc1cccc(-c2cc(Cc3c(Cl)cc(OCC(=O)O)cc3Cl)ccc2O)c1 | ++ (3X < T3-SI ≤ 30X)
Cc1cc(OCC(=O)O)cc(Cl)c1Cc1ccc(O)c(-c2cccc(OC(F)F)c2)c1 | ++ (3X < T3-SI ≤ 30X)
Cc1cc(OCC(=O)O)cc(Cl)c1Cc1ccc(O)c(Cc2ccc(F)cc2)c1 | ++ (3X < T3-SI ≤ 30X)
O=C(O)COc1cc(Cl)c(Cc2ccc(O)c(Cc3ccccc3F)c2)c(Cl)c1 | ++ (3X < T3-SI ≤ 30X)
O=C(O)COc1cc(Cl)c(Cc2ccc(O)c(CCc3ccc(F)cc3)c2)c(Cl)c1 | ++ (3X < T3-SI ≤ 30X)
O=C(O)COc1cc(Cl)c(Cc2ccc(O)c(-c3cccc(OC(F)F)c3)c2)c(Cl)c1 | +++ (T3-SI > 30X)
O=C(O)COc1cc(Cl)c(Cc2ccc(O)c(-c3ccco3)c2)c(Cl)c1 | ++ (3X < T3-SI ≤ 30X)
COCC(c1ccc(F)cc1)c1cc(Cc2c(Cl)cc(OCC(=O)O)cc2Cl)ccc1O (centres unmarked) | +++ (T3-SI > 30X)
O=C(O)COc1cc(Cl)c(Cc2ccc(O)c(C(c3ccc(F)cc3)C3CCC3)c2)c(Cl)c1 (centres unmarked) | +++ (T3-SI > 30X)
O=C(O)COc1cc(Cl)c(Cc2ccc(O)c(-c3cccc(C(F)(F)F)c3)c2)c(Cl)c1 | ++ (3X < T3-SI ≤ 30X)
O=C(O)COc1cc(Cl)c(Cc2ccc(O)c(-c3cccc(OC(F)F)c3F)c2)c(Cl)c1 | ++ (3X < T3-SI ≤ 30X)
CCc1cccc(-c2cc(Cc3c(Cl)cc(OCC(=O)O)cc3Cl)ccc2O)c1 | +++ (T3-SI > 30X)
O=C(O)COc1cc(Cl)c(Cc2ccc(O)c(C3CCc4cc(F)ccc43)c2)c(Cl)c1 (centres unmarked) | ++ (3X < T3-SI ≤ 30X)

###

Overview of reported EC50 across a group of compounds:
- targetEntity: TRβ (Homo sapiens, UniProt P10828)
- assayExplanation: Thyroid-hormone reporter-gene assay, TRβ (Gal4 DBD hybrid, luciferase, HEK293)
- runConditions: reporter cells derived from HEK293, 24 hr incubation, luciferase readout

compound | EC50
O=C(O)COc1cc(Cl)c(Cc2ccc(O)c(-c3cccs3)c2)c(Cl)c1 [Compound 34] | 100 to 1000 nM
O=C(O)COc1cc(Cl)c(Cc2ccc(O)c(Cc3ccoc3)c2)c(Cl)c1 [Compound 119] | 100 to 1000 nM
CCC(c1ccc(F)cc1)c1cc(Cc2c(Cl)cc(OCC(=O)O)cc2Cl)ccc1O (stereo not shown) [Compound 98] | 10 to 100 nM
N#Cc1ccc(Cc2cc(Cc3c(Cl)cc(OCC(=O)O)cc3Cl)ccc2O)cc1 [Compound 80] | > 1000 nM

###

- targetEntity: TRα (Homo sapiens, UniProt P10827)
- Sequence (P10827 128-410 isoform P10827-2 limits assumed): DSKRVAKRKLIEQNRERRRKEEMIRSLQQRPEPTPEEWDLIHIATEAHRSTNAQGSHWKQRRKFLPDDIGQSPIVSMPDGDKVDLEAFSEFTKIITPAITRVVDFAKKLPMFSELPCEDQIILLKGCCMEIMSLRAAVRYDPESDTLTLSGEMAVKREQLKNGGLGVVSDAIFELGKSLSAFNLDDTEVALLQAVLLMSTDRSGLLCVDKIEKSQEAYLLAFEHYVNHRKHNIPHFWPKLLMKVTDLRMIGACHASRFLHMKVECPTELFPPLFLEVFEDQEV
- assayExplanation: Thyroid-hormone reporter-gene assay, TRα (Gal4 DBD hybrid, luciferase, HEK293)
- runConditions: reporter cells derived from HEK293, 24 hr incubation, luciferase readout
pEC50: −log10 of the molar value.

compound | pEC50
Cc1cc(OCC(=O)O)cc(C)c1Cc1ccc(O)c(Cc2ccc(F)cc2)c1 [Compound 133] | 6.00 to 7.00
O=C(O)COc1cc(Cl)c(Cc2ccc(O)c(Cc3ccsc3)c2)c(Cl)c1 [Compound 121] | < 6.00
O=C(O)COc1cc(Cl)c(Cc2ccc(O)c(-c3cccc(Cl)c3)c2)c(Cl)c1 [Compound 29] | 6.00 to 7.00
O=C(O)COc1cc(Cl)c(Cc2ccc(O)c(C(CC(F)(F)F)c3ccc(F)cc3)c2)c(Cl)c1 (stereo not drawn) [Compound 127] | 6.00 to 7.00
O=C(O)COc1cc(Cl)c(Cc2ccc(O)c(-c3cccc(C(F)(F)F)c3F)c2)c(Cl)c1 [Compound 49] | < 6.00
O=C(O)COc1cc(Cl)c(Cc2ccc(O)c(-c3ccoc3)c2)c(Cl)c1 [Compound 40] | < 6.00
O=C(O)COc1cc(Cl)c(Cc2ccc(O)c(-c3cc(C(F)(F)F)ccc3F)c2)c(Cl)c1 [Compound 45] | 6.00 to 7.00
Cc1cc(OCC(=O)O)cc(Br)c1Cc1ccc(O)c(-c2cccc(OC(F)F)c2)c1 [Compound 66] | 6.00 to 7.00
Cc1cc(OCC(=O)O)cc(Br)c1Cc1ccc(O)c(C(C)c2ccc(F)cc2)c1 (stereo not drawn) [Compound 131] | 7.00 to 8.00
O=C(O)COc1cc(Cl)c(Cc2ccc(O)c(Cc3ccoc3)c2)c(Cl)c1 [Compound 119] | < 6.00
O=C(O)COc1cc(Cl)c(Cc2ccc(O)c(C(c3ccc(F)cc3)C3CC3)c2)c(Cl)c1 (stereo not drawn) [Compound 107] | 6.00 to 7.00
COc1cccc(-c2cc(Cc3c(Cl)cc(OCC(=O)O)cc3Cl)ccc2O)c1 [Compound 7] | < 6.00
CCCC(c1ccc(F)cc1)c1cc(Cc2c(Cl)cc(OCC(=O)O)cc2Cl)ccc1O (stereo not drawn) [Compound 102] | < 6.00
O=C(O)COc1cc(Cl)c(Cc2ccc(O)c(Cc3ccc(F)cc3)c2)c(Cl)c1 [Compound 70] | < 6.00
O=C(O)COc1cc(Cl)c(Cc2ccc(O)c(Cc3ccc(Cl)cc3)c2)c(Cl)c1 [Compound 90] | < 6.00
O=C(O)COc1cc(Cl)c(Cc2ccc(O)c(Cc3ccncc3)c2)c(Cl)c1 [Compound 82] | < 6.00
CC(C)(c1ccc(F)cc1)c1cc(Cc2c(Cl)cc(OCC(=O)O)cc2Cl)ccc1O [Compound 105] | 6.00 to 7.00
Cc1cc(OCC(=O)O)cc(Cl)c1Cc1ccc(O)c(-c2cccc(C(F)(F)F)c2)c1 [Compound 64] | 6.00 to 7.00
CCc1ccc(F)c(-c2cc(Cc3c(Cl)cc(OCC(=O)O)cc3Cl)ccc2O)c1 [Compound 51] | < 6.00
O=C(O)COc1cc(Cl)c(Cc2ccc(O)c(Cc3cccs3)c2)c(Cl)c1 [Compound 123] | < 6.00
O=C(O)COc1cc(Cl)c(Cc2ccc(O)c(-c3cccc(C(F)(F)F)c3)c2)c(Cl)c1 [Compound 1] | 6.00 to 7.00
CC(c1ccc(F)cc1)c1cc(Cc2c(Cl)cc(OCC(=O)O)cc2Cl)ccc1O (stereo not drawn) [Compound 73] | 7.00 to 8.00
O=C(O)COc1cc(Cl)c(Cc2ccc(O)c(C(c3ccc(F)cc3)C(F)(F)F)c2)c(Cl)c1 (stereo not drawn) [Compound 125] | 6.00 to 7.00
O=C(O)COc1cc(Cl)c(Cc2ccc(O)c(C3CCCc4cc(F)ccc43)c2)c(Cl)c1 (stereo not drawn) [Compound 111] | 6.00 to 7.00
O=C(O)COc1cc(Cl)c(Cc2ccc(O)c(-c3cc(F)cc(OC(F)F)c3)c2)c(Cl)c1 [Compound 54] | < 6.00
CC(C)C(c1ccc(F)cc1)c1cc(Cc2c(Cl)cc(OCC(=O)O)cc2Cl)ccc1O (stereo not drawn) [Compound 104] | 6.00 to 7.00
O=C(O)COc1cc(Cl)c(Cc2ccc(O)c(-c3cccc(CC(F)(F)F)c3)c2)c(Cl)c1 [Compound 26] | < 6.00
O=C(O)COc1cc(Cl)c(Cc2ccc(O)c(-c3cccs3)c2)c(Cl)c1 [Compound 34] | < 6.00
O=C(COc1cc(Cl)c(Cc2ccc(O)c(-c3cccc(OC(F)F)c3)c2)c(Cl)c1)N1CC1 [Compound 138] | < 6.00
Cc1cc(OCC(=O)O)cc(Cl)c1Cc1ccc(O)c(-c2cccc(OC(F)F)c2)c1 [Compound 62] | < 6.00
O=C(O)COc1cc(Cl)c(Cc2ccc(O)c(-c3cccc(OC(F)F)c3)c2)c(Cl)c1 [Compound 5] | < 6.00
O=C(O)COc1cc(Cl)c(Cc2ccc(O)c(Cc3cccc(F)c3)c2)c(Cl)c1 [Compound 86] | < 6.00
O=C(O)COc1cc(Cl)c(Cc2ccc(O)c(Cc3ccccc3F)c2)c(Cl)c1 [Compound 84] | < 6.00
